Hello, the source for this data is patent US20230086703A1, in case you need it.

Biological target: human CTPS1 (Homo sapiens, UniProt P17812)
Construct: FLAG (with GG linker); His8 (with GG linker); purchased Proteros biostructures GmbH
Sequence (P17812 1-591): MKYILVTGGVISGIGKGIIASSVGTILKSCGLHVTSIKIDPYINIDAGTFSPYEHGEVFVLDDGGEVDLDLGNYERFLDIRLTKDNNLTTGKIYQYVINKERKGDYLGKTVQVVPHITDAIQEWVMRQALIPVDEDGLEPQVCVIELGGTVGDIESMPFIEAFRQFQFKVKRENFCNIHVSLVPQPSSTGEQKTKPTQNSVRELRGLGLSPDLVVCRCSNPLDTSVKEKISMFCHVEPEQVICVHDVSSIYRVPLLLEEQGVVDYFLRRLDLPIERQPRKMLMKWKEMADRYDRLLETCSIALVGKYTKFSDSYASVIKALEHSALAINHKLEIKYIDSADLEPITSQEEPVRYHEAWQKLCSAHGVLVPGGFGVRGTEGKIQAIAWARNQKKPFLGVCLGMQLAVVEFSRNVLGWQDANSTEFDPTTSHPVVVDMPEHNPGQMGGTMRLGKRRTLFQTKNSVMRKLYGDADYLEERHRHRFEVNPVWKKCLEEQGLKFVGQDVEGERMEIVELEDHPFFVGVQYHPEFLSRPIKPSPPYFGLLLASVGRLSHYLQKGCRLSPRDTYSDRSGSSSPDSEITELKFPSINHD
Assay: RapidFire/MS-based enzyme selectivity assay (human CTPS1 versus CTPS2), CTPS1 isoform
Format: biochemical
Settings: RapidFire/MS IC50 values of CTPS1 and CTPS2; Table 15
parameterMeasured: Selectivity (fold selectivity between CTPS1 and CTPS2)

compound	reading
CCOc1cncc(-c2ccc(NC(=O)C(F)(CC)c3ccnc(NS(=O)(=O)C4CC4)n3)nc2)n1 (single isomer, unassigned) [P113]	+ (2-30 fold (+))
CCC(C(=O)Nc1ncc(-c2cncc(OC)n2)cc1F)c1ccnc(NS(=O)(=O)C2CC2)n1 (centres unmarked)	+ (2-30 fold (+))
CCOc1cncc(-c2ccc(NC(=O)C(CC)c3cccc(NS(=O)(=O)C4CC4)n3)nc2)n1 (centres unmarked)	++ (>30-60 fold (++))
CCC(C(=O)Nc1ccc(-c2cncc(OC)n2)cn1)c1ccnc(NS(=O)(=O)C2CC2)n1 (centres unmarked)	+++ (>60 fold (+++))
CCC(C(=O)Nc1ccc(-c2cncc(OCC(F)(F)F)n2)cc1F)c1ccnc(NS(=O)(=O)C2CC2)n1 (centres unmarked)	+++ (>60 fold (+++))
CCC(C(=O)Nc1ccc(-c2cncc(OCC(F)(F)F)n2)cc1)c1ccnc(NS(=O)(=O)C2CC2)n1 (centres unmarked)	+++ (>60 fold (+++))
CCOc1cncc(-c2ccc(NC(=O)C3(c4ccnc(NS(=O)(=O)C5CC5)n4)CCCC3)cc2)n1 [P2]	+++ (>60 fold (+++))
CC(C)c1cncc(-c2ccc(NC(=O)C(C)(C)c3ccnc(NS(=O)(=O)C4CC4)n3)cc2)n1	++ (>30-60 fold (++))

----------
Examples of compounds with documented IC50 follow.
target: human CTPS1 (Homo sapiens); construct: FLAG (with GG linker); His8 (with GG linker); purchased Proteros biostructures GmbH; assay: Human CTPS1 enzyme inhibition, ADP-Glo Max assay; type: biochemical; conditions: ADP-Glo Max assay; Table 10; read-out: Human CTPS1 Enzyme Inhibition, IC50 grouped by potency range (CTPS1)

smilesString	IC50
CC(C)(O)c1cccc(-c2ccc(NC(=O)C(C)(C)c3csc(NS(=O)(=O)C4CC4)n3)nc2)c1	1000 to 10000 nM
CCOc1cncc(-c2ccc(NC(=O)C(C)(C)c3csc(NS(=O)(=O)CC(C)C)n3)nc2)n1	100 to 1000 nM
O=C(Cc1csc(NS(=O)(=O)C2CC2)n1)Nc1ccc(-c2cccnc2)c(F)c1F	100 to 1000 nM
COc1cc(NC(=O)C(C)(C)c2csc(NS(=O)(=O)C3CC3)n2)ccc1-c1cccnc1	100 to 1000 nM
CC(C)(C(=O)Nc1ccc(-c2cncc(C#N)c2)cn1)c1csc(NS(=O)(=O)C2CC2)n1	< 100 nM
CC(C)(C(=O)Nc1ccc(-c2cncc(C(F)(F)F)c2)cc1F)c1csc(NS(=O)(=O)CC2CC2)n1	100 to 1000 nM
CC(C)(C(=O)Nc1ccc(-c2cncc(OC(F)F)c2)cc1)c1csc(NS(=O)(=O)C2CC2)n1	< 100 nM
CC(C)(C(=O)Nc1ccc(-c2cccnc2F)cc1)c1csc(NS(=O)(=O)C2CC2)n1	100 to 1000 nM
CCOc1cncc(-c2ccc(NC(=O)C(C)(C)c3csc(NS(=O)(=O)C4CC4)n3)c(C)c2)n1	< 100 nM
CC(C)(C(=O)Nc1ccc(-c2cncc(C(F)(F)F)n2)cc1)c1csc(NS(=O)(=O)C2CCC2)n1	100 to 1000 nM
CC(C)(C(=O)Nc1ccc(-c2cncc(Cl)n2)cn1)c1csc(NS(=O)(=O)C2CC2)n1	< 100 nM
CC(C)(C(=O)Nc1ccc(-c2cncc(Cl)c2)cc1F)c1csc(NS(=O)(=O)C2CC2)n1	< 100 nM
CCC(CC)(C(=O)Nc1ccc(-c2cccnc2)cc1F)c1csc(NS(=O)(=O)C2CC2)n1	< 100 nM
CC(C)(C(=O)Nc1ccc(-c2cncc(OCC(F)(F)F)n2)cn1)c1csc(NS(=O)(=O)C2CC2)n1	< 100 nM
CCCOc1cncc(-c2ccc(NC(=O)C(CC)(CC)c3csc(NS(=O)(=O)C4CC4)n3)cc2)n1	< 100 nM
CC(C)(C(=O)Nc1ccc(-c2cncc(OC3CC3)n2)cc1)c1csc(NS(=O)(=O)C2CC2)n1	< 100 nM

----------
biological target: human CTPS1 (Homo sapiens, UniProt P17812); construct: FLAG (with GG linker); His8 (with GG linker); purchased Proteros biostructures GmbH; assay: Human CTPS1 enzyme inhibition, ADP-Glo Max assay; assay type: biochemical; conditions: ADP-Glo Max assay; Table 10; read-out: Human CTPS1 Enzyme Inhibition, IC50 grouped by potency range (CTPS1)
pIC50: −log10 of the molar value.

compound	pIC50
COC(C(=O)Nc1ccc(-c2cncc(C(F)(F)F)n2)cc1F)c1csc(NS(=O)(=O)C2CC2)n1 (single isomer, unassigned) [T459]	> 7.00
CC(C)(C(=O)Nc1ccc(-c2cccc(N3CCOCC3)c2)cn1)c1csc(NS(=O)(=O)C2CC2)n1	5.00 to 6.00
CC(C)(C(=O)Nc1ccc(-c2cncc(Cl)c2)cc1)c1csc(NS(=O)(=O)C2CC2)n1	> 7.00
COc1cc(-c2cncc(C(F)(F)F)c2)ccc1NC(=O)C(C)(C)c1csc(NS(=O)(=O)C2CC2)n1	> 7.00
COc1cncc(-c2ccc(NC(=O)C(OC)c3csc(NS(=O)(=O)C4CC4)n3)cc2)n1 (single isomer, unassigned)	> 7.00
CC(C)(C(=O)Nc1ccc(-c2cncc(OCC(F)(F)F)c2)cn1)c1csc(NS(=O)(=O)C2CC2)n1	6.00 to 7.00
COc1ncc(-c2ccc(NC(=O)C(C)(C)c3csc(NS(=O)(=O)C4CC4)n3)cc2)cc1C	5.00 to 6.00

----------
biological target: human CTPS1 (Homo sapiens, UniProt P17812); construct: FLAG (with GG linker); His8 (with GG linker); purchased Proteros biostructures GmbH; assay: Human CTPS1 enzyme inhibition, ADP-Glo Max assay; type: biochemical; details: ADP-Glo Max assay; Table 10; read-out: Human CTPS1 Enzyme Inhibition, IC50 grouped by potency range (CTPS1)
pIC50: −log10 of the molar value.

compound	pIC50
CC(C)(C(=O)Nc1ccc(-c2cccnc2C(F)(F)F)cc1)c1csc(NS(=O)(=O)C2CC2)n1	5.00 to 6.00
CCOc1cncc(-c2ccc(NC(=O)C(C)(C)c3csc(NS(C)(=O)=O)n3)cc2)n1	> 7.00
O=C(Cc1csc(NS(=O)(=O)C2CC2)n1)Nc1ccc(-c2cccnc2)nc1	6.00 to 7.00
CCC(C(=O)Nc1ccc(-c2cncc(F)c2)cc1)c1csc(NS(=O)(=O)C2CC2)n1 (single isomer, unassigned)	> 7.00
COc1cc(OC)cc(-c2ccc(NC(=O)C(C)(C)c3csc(NS(=O)(=O)C4CC4)n3)nc2)c1	5.00 to 6.00
CC(C)(C(=O)Nc1ccc(-c2cncnc2)nc1)c1csc(NS(=O)(=O)C2CC2)n1	6.00 to 7.00
CC(C)(C(=O)Nc1ccc(-c2cncc(C(F)(F)F)c2)cc1)c1csc(NS(=O)(=O)C2CC2)n1	> 7.00
CCC(CC)(C(=O)Nc1ccc(-c2cnccn2)cc1)c1csc(NS(=O)(=O)C2CC2)n1	> 7.00

----------
target: human CTPS1 (Homo sapiens); construct: FLAG (with GG linker); His8 (with GG linker); purchased Proteros biostructures GmbH; assay: Human CTPS1 enzyme inhibition, ADP-Glo Max assay; format: biochemical; conditions: Table 12, ADP-Glo Max assay; read-out: CTPS1 (Human CTPS1 Enzyme Inhibition data grouped by potency range)
pIC50: −log10 of the molar value.
parameterMeasured: pIC50

compound	reading
CCOc1cncc(-c2ccc(NC(=O)C3(c4ccnc(NS(=O)(=O)CC)n4)CCN(C(=O)COC)CC3)nc2)n1	> 7.00
CCOc1cncc(-c2ccc(NC(=O)C3(c4ccnc(NS(=O)(=O)C5CC5)n4)CCC(N(C)CCOC)CC3)nc2)n1 (centres unmarked) [P309]	6.00 to 7.00
CCOC(=O)CN1CCC(C(=O)Nc2ccc(-c3cncc(OCC)n3)cn2)(c2nccc(NS(=O)(=O)C3CC3)n2)CC1	> 7.00
CCOc1cncc(-c2ccc(NC(=O)C3(c4ccnc(NS(=O)(=O)C5CC5)n4)CCN(S(=O)(=O)CC)CC3)nc2)n1	> 7.00
CCOc1cncc(-c2ccc(NC(=O)C3(c4nccc(NS(=O)(=O)C5CC5)n4)CCN(CC#N)CC3)nc2)n1	> 7.00
CCOc1cncc(-c2ccc(NC(=O)C3(c4ccnc(NS(=O)(=O)C5CC5)n4)CCC(N(C)C4COC4)CC3)nc2)n1 (centres unmarked)	> 7.00
CCOc1cncc(-c2ccc(NC(=O)C3(c4ccnc(NS(=O)(=O)C5CC5)n4)CCC(N4CCOCC4)CC3)nc2)n1 (centres unmarked) [P305]	6.00 to 7.00
CCOc1cncc(-c2ccc(NC(=O)C3(c4ccnc(NS(=O)(=O)C5CC5)n4)CCC(N(C)C)CC3)nc2)n1 (single isomer, unassigned)	5.00 to 6.00
CCOc1cncc(-c2ccc(NC(=O)C3(c4ccnc(NS(=O)(=O)CC)n4)CCN(S(=O)(=O)C4CC4)CC3)nc2)n1	> 7.00
CCOc1cncc(-c2ccc(NC(=O)C3(c4ccnc(NS(=O)(=O)C5CC5)n4)CCN(C(=O)COC)CC3)nc2)n1	> 7.00
CCOc1cncc(-c2ccc(NC(=O)C3(c4nccc(NS(=O)(=O)C5CC5)n4)CCN(S(C)(=O)=O)CC3)nc2)n1	> 7.00
CCOc1cncc(-c2ccc(NC(=O)C3(c4ccnc(NS(=O)(=O)C5CC5)n4)CCN(S(=O)(=O)c4ccn(C)n4)CC3)nc2)n1	> 7.00
CCOc1cncc(-c2ccc(NC(=O)C3(c4cncc(NS(=O)(=O)C5CC5)n4)CCN(S(C)(=O)=O)CC3)nc2)n1	> 7.00
CCOc1cncc(-c2ccc(NC(=O)C3(c4ccnc(NS(=O)(=O)C5CC5)n4)CCC(N(C)CC(F)F)CC3)nc2)n1 (centres unmarked)	> 7.00
